Recorded measurements of pIC50, one per entry
Tested Target: LCK (Homo sapiens, UniProt P06239)
Sequence (P06239 whole entry): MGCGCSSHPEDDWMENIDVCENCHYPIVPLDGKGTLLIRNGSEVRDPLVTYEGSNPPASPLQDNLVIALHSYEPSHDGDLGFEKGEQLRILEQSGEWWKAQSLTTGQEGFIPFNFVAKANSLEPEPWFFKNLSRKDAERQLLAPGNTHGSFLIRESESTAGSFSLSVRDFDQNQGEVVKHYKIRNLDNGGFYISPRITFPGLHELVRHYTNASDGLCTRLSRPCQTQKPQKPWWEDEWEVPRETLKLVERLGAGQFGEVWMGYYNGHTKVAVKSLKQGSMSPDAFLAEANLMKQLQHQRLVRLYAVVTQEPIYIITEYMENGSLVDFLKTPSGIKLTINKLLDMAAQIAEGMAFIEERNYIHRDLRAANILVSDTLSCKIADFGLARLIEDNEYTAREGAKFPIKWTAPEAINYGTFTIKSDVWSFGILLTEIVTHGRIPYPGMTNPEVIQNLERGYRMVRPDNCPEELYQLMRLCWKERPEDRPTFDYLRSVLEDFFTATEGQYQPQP
Method Notes: Inhibition of a panel of kinases, in vitro HotSpot kinase assay: LCK
Assay type: biochemical
Experimental Setup: D-compounds panel data; 1 μM ATP; read-out: IC50 LCK
pIC50: −log10 of the molar value.

>  <Compound>
C[C@H]1CC[C@@H](NC(=O)c2ccc(C3CC3)cc2)CN1c1cnc(C(N)=O)c(Nc2ccc(N3CCN(C)CC3)c(F)c2)n1

>  <Tested Target>
LCK (Homo sapiens, UniProt P06239)

>  <pIC50>
7.00 to 8.00

$$$$
>  <Compound>
C[C@@H]1[C@H](NC(=O)N(C)C)CCCN1c1cnc(C(N)=O)c(Nc2ccc(N3CCN(C)CC3)cn2)n1

>  <Tested Target>
LCK (Homo sapiens, UniProt P06239)

>  <pIC50>
< 5.00

$$$$
>  <Compound>
Cc1c(Nc2nc(N3CCC[C@@H](NC(=O)c4ccc(C5CC5)cc4)[C@H]3C)cnc2C(N)=O)cnn1C

>  <Tested Target>
LCK (Homo sapiens, UniProt P06239)

>  <pIC50>
5.00 to 6.00

$$$$
>  <Compound>
C[C@H]1C[C@@H](NC(=O)c2ccc(C3CC3)cc2)CN(c2cnc(C(N)=O)c(Nc3cnn(C)c3)n2)C1

>  <Tested Target>
LCK (Homo sapiens, UniProt P06239)

>  <pIC50>
6.00 to 7.00

$$$$
>  <Compound>
C[C@@H]1[C@H](NC(=O)c2ccc(C(C)(C)C#N)cc2)CCCN1c1cnc(C(N)=O)c(Nc2cnn(C)c2)n1

>  <Tested Target>
LCK (Homo sapiens, UniProt P06239)

>  <pIC50>
6.00 to 7.00

$$$$
>  <Compound>
C[C@@H]1[C@H](NC(=O)c2ccc(C3CC3)cn2)CCCN1c1cnc(C(N)=O)c(Nc2ccc(OC3CCN(C)CC3)cc2)n1

>  <Tested Target>
LCK (Homo sapiens, UniProt P06239)

>  <pIC50>
7.00 to 8.00

$$$$
>  <Compound>
C[C@@H]1[C@H](NC(=O)c2ccc(C3CC3)cc2)CCCN1c1cnc(C(N)=O)c(Nc2cn(C)nc2C(F)(F)F)n1

>  <Tested Target>
LCK (Homo sapiens, UniProt P06239)

>  <pIC50>
< 5.00

$$$$
>  <Compound>
C[C@@H]1[C@H](NC(=O)c2ccc3scnc3c2)CCCN1c1cnc(C(N)=O)c(Nc2ccc(N3CCN(C)CC3)cc2)n1

>  <Tested Target>
LCK (Homo sapiens, UniProt P06239)

>  <pIC50>
7.00 to 8.00

$$$$
>  <Compound>
C[C@@H]1[C@H](NC(=O)N(C)C)CCCN1c1cnc(C(N)=O)c(Nc2cc(C3CCOCC3)ns2)n1

>  <Tested Target>
LCK (Homo sapiens, UniProt P06239)

>  <pIC50>
7.00 to 8.00

$$$$
>  <Compound>
Cn1cc(Nc2nc(N3CCC(NC(=O)c4ccc(C5CC5)cc4)C(O)C3)cnc2C(N)=O)cn1 (single isomer, unassigned) [Example D-29]

>  <Tested Target>
LCK (Homo sapiens, UniProt P06239)

>  <pIC50>
< 5.00

$$$$
>  <Compound>
C[C@@H]1[C@H](NC(=O)c2ccc(C(C)(C)C)cc2)CCCN1c1nnc(C(N)=O)c(Nc2cnn(C)c2)n1

>  <Tested Target>
LCK (Homo sapiens, UniProt P06239)

>  <pIC50>
7.00 to 8.00

$$$$
>  <Compound>
C[C@@H]1[C@H](NC(=O)c2ccc(C3CC3)cc2)CCCN1c1cnc(C(N)=O)c(Nc2ccc(OC3CCN(C)CC3)cc2)n1

>  <Tested Target>
LCK (Homo sapiens, UniProt P06239)

>  <pIC50>
7.00 to 8.00

$$$$
>  <Compound>
C[C@@H]1[C@H](NC(=O)c2ccc(C3CC3)cc2)CCCN1c1cnc(C(N)=O)c(Nc2cnn(C3CCOCC3)c2)n1

>  <Tested Target>
LCK (Homo sapiens, UniProt P06239)

>  <pIC50>
6.00 to 7.00

$$$$
>  <Compound>
C[C@@H]1[C@H](N2Cc3cc(C4CC4)ccc3C2=O)CCCN1c1cnc(C(N)=O)c(Nc2cnn(C)c2)n1

>  <Tested Target>
LCK (Homo sapiens, UniProt P06239)

>  <pIC50>
6.00 to 7.00

$$$$
>  <Compound>
C[C@@H]1[C@H](NC(=O)c2ccc(C3CC3)cc2)CCCN1c1cnc(C(N)=O)c(Nc2ccc(N3CCC(C(=O)N(C)C)CC3)cc2)n1

>  <Tested Target>
LCK (Homo sapiens, UniProt P06239)

>  <pIC50>
7.00 to 8.00

$$$$
>  <Compound>
CN1CCC(n2cc(Nc3nc(N4CCC[C@@H](n5ccc6cc(C7CC7)ccc6c5=O)C4)cnc3C(N)=O)cn2)CC1

>  <Tested Target>
LCK (Homo sapiens, UniProt P06239)

>  <pIC50>
6.00 to 7.00

$$$$
>  <Compound>
C[C@@H]1[C@H](NC(=O)c2ccc(C3CC3)cc2)CCCN1c1cnc(C(N)=O)c(Nc2cc(C3CCN(C)CC3)ns2)n1

>  <Tested Target>
LCK (Homo sapiens, UniProt P06239)

>  <pIC50>
> 8.00

$$$$
>  <Compound>
COCCN(C)Cc1cc(Nc2nc(N3CCC[C@@H](NC(=O)c4ccc(C5CC5)cc4)[C@H]3C)cnc2C(N)=O)sn1

>  <Tested Target>
LCK (Homo sapiens, UniProt P06239)

>  <pIC50>
6.00 to 7.00

$$$$
>  <Compound>
C[C@@H]1[C@H](NC(=O)c2ccc(C3CC3)cc2)CCCN1c1cnc(C(N)=O)c(Nc2ccc(C3CCOCC3)cc2)n1

>  <Tested Target>
LCK (Homo sapiens, UniProt P06239)

>  <pIC50>
< 5.00

$$$$
>  <Compound>
Cn1cc(Nc2nc(N3CCC[C@@H](n4ccc5cc(C6CC6)ccc5c4=O)C3)nnc2C(N)=O)cn1

>  <Tested Target>
LCK (Homo sapiens, UniProt P06239)

>  <pIC50>
7.00 to 8.00

$$$$
>  <Compound>
Cc1cc(Nc2nc(N3CCC[C@@H](NC(=O)N(C)C)[C@H]3CO)cnc2C(N)=O)sn1

>  <Tested Target>
LCK (Homo sapiens, UniProt P06239)

>  <pIC50>
6.00 to 7.00

$$$$
>  <Compound>
C[C@@H]1[C@H](NC(=O)c2ccc3nccn3c2)CCCN1c1cnc(C(N)=O)c(Nc2cnn(C)c2)n1

>  <Tested Target>
LCK (Homo sapiens, UniProt P06239)

>  <pIC50>
7.00 to 8.00

$$$$
>  <Compound>
Cn1cc(Nc2nc(N3C[C@H](CO)C[C@H](NC(=O)c4ccc(C5CC5)cc4)C3)cnc2C(N)=O)cn1 (racemic)

>  <Tested Target>
LCK (Homo sapiens, UniProt P06239)

>  <pIC50>
6.00 to 7.00

$$$$
>  <Compound>
C[C@@H]1[C@H](NC(=O)c2cnc(C3CC3)nc2)CCCN1c1cnc(C(N)=O)c(Nc2cnn(C)c2)n1

>  <Tested Target>
LCK (Homo sapiens, UniProt P06239)

>  <pIC50>
7.00 to 8.00

$$$$
>  <Compound>
C[C@@H]1[C@H](NC(=O)c2ccc(C3(O)CC3)cc2)CCCN1c1cnc(C(N)=O)c(Nc2cnn(C)c2)n1

>  <Tested Target>
LCK (Homo sapiens, UniProt P06239)

>  <pIC50>
6.00 to 7.00

$$$$
>  <Compound>
C[C@@H]1CC[C@H](NC(=O)c2ccc(C3CC3)cc2)CN1c1cnc(C(N)=O)c(Nc2ccc(N3CCN(C)CC3)c(F)c2)n1

>  <Tested Target>
LCK (Homo sapiens, UniProt P06239)

>  <pIC50>
6.00 to 7.00

$$$$
